# target.under.test: UniProt P01116
pIC50: −log10 of the molar value.
Classification field: enter true (1) for pIC50 values not below 9, false (0) for values below it.

molecule | group
Cc1cc(N)c(F)c(-c2c(Cl)c3c4c(nc(OC[C@@]56CCCN5C[C@H](F)C6)nc4c2F)N([C@H](C)c2cccnc2N)CCO3)c1I (single isomer, unassigned) [Example 74a] | true (1)
Cc1cc(N)nc(-c2c(Cl)c3c4c(nc(OC[C@@H]5CC[C@H]6COCCCN65)nc4c2F)N([C@H](C)c2cccnc2N)CCO3)c1C(F)(F)F (atropisomer, axis not shown; (aS)) [Example 120a] | true (1)
Cc1cc(N)nc(-c2cc3nc(OC[C@@]45CCCN4CC(F)(F)C5)nc4c3c(c2Cl)OCCN4C)c1C(F)(F)F [Example 10] | false (0)
Cc1cc(N)nc(-c2c(Cl)c3c4c(nc(OC[C@@H]5CCC(=O)N5)nc4c2F)N([C@H](C)c2cccnc2N)CCO3)c1C(F)(F)F (atropisomer, axis not shown) [Example 121] | true (1)
Cc1cc(N)nc(-c2c(Cl)c3c4c(nc(OC[C@@]56CCCN5C[C@H](F)C6)nc4c2F)N([C@@H](c2cccnc2N)C2CC2)CCO3)c1C(F)(F)F (atropisomer, axis not shown; (aS)) [Example 86] | true (1)
Cc1cc(N)nc(-c2c(Cl)c3c4c(nc(OC[C@@H]5CC[C@H]6COCCN65)nc4c2F)N([C@H](C)c2cncnc2N)CCO3)c1C(F)(F)F (atropisomer, axis not shown; (aS)) [Example 102a] | true (1)
Cc1cc(N)nc(-c2c(Cl)c3c4c(nc(OC[C@@H]5C[C@H]6COCCN65)nc4c2F)N([C@H](C)c2cccnc2N)CCO3)c1C(F)(F)F (atropisomer, axis not shown) [Example 99a] | true (1)
Cc1cc(N)nc(-c2cc3ncnc4c3c(c2Cl)OCCN4C2(c3cccnc3N)CC2)c1C(F)(F)F [Example 11] | false (0)
Cc1c(F)c(N)nc(-c2c(Cl)c3c4c(nc(OC[C@@]56CCCN5C[C@H](F)C6)nc4c2F)N([C@H](C)c2cccnc2N)CCO3)c1C(F)(F)F (atropisomer, axis not shown; (aS)) [Example 75a] | true (1)

----------
log10(IC50) by entry:
# target.under.test: KRas(G12V) (Homo sapiens (Human), UniProt P01116, G12V)
# Sequence (P01116-2 other isoform, or with tags, fused parts or gaps G12V): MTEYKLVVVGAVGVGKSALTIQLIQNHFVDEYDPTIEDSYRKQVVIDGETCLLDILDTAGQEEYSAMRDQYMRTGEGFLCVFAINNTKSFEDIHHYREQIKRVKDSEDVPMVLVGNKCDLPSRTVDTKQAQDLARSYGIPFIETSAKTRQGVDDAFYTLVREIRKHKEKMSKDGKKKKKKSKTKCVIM
# procedure.text: KRas(G12V) GDP HTRF (BODIPY-GDP exchange TR-FRET)
measured.quantity: log10(IC50) (log10 of the value in nM)

molecule | reported.measurement
Cc1cc(N)nc(-c2cc3ncnc4c3c(c2Cl)OCCN4Cc2ccns2)c1C(F)(F)F | 4.04
C[C@H](c1cccnc1N)N1CCOc2c(Cl)c(-c3cc(O)cc4ccccc34)c(F)c3nc(OC[C@@]45CCCN4C[C@H](F)C5)nc1c23 | -1.30
Cc1cc(N)nc(-c2c(Cl)c3c4c(nc(OCCN5C6CCC5CN(C)C6)nc4c2F)N([C@H](C)c2cccnc2N)CCO3)c1C(F)(F)F | -1.15
Cc1cc(N)nc(-c2cc3ncnc4c3c(c2Cl)OCCN4Cc2cnc[nH]2)c1C(F)(F)F | 3.67
Cc1cc(N)nc(-c2c(Cl)c3c4c(nc(OC[C@@H]5CCCN5CC(F)F)nc4c2F)N([C@H](C)c2nccnc2N)CCO3)c1C(F)(F)F (atropisomer, axis not shown) [Example 158b] | 1.99
Cc1cc(N)nc(-c2c(Cl)c3c4c(nc(OC[C@@H]5C[C@@H]6C[N@@]5CCO6)nc4c2F)N([C@H](C)c2cccnc2N)CCO3)c1C(F)(F)F (atropisomer, axis not shown) [Example 92a] | -1.15
